- Tested Target: T1, human MSLN-R3-his protein (human, UniProt Q13421 487-598)
- T1 construct: it is put last here; also called human MSLN-R3 protein; hMSLN-R3-his; not shown: His tag
- T1 sequence (Q13421 495-606): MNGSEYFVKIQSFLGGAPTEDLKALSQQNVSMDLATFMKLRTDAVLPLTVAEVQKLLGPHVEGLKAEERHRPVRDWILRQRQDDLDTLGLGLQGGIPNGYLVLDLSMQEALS
- Procedure Text: ELISA on coated antigen, no antibody (blank, column 'none')
Measurement Name: OD450 (OD)

{"Binder": "S009-F7.23.19 (antibody, human IgG1, kappa, V domains shown, Human-murine chimeric antibody, human IgG1 heavy and kappa light constant regions) VH: EVKLVESGGGLVQPGGSLSLSCAASGFTFTDYYMSWVRQPPGKALEWLGFIRSKANAYTTEYSASVKGRFTISRDNSQSILYLQMNDLRAEDSATYYCARYYYYGSGYVWYFDVWGTGTTVTVSS VL: DIVMTQSQKFMSTSVGDRVSVTCKASQSVGTNVAWYQQKPGQFPKALIYSASYRYSGVPDRFTGSGSGTDFTLTIINVQSEDLAEYFCQQYNSYPLTFGAGTKLELKR", "Units Text": "OD", "Value Measured": 0.09}
{"Binder": "S009-F7.18.10 (antibody, human IgG1, kappa, V domains shown, Human-murine chimeric antibody, human IgG1 heavy and kappa light constant regions) VH: QVQLQQSGAELVRPGTSVKVSCKASGYAFTNYLIEWVKQRPGQGLEWIGVINPGSGGTKYNEKFKGKATLTADKSSSTAYMQLSSLTSEDSAVYFCASDYDYDPFAYWGQGTLVTVSA VL: DIVMTQSHKFMSTSVGDRVSITCKASQDVSTAVAWYQRKPGQSPKLLIYWASTRHTGVPDRFTGSGSGTDYTLTISYMQAEDLALYYCQQHYSTPYTFGGGTKLEIKR", "Units Text": "OD", "Value Measured": 0.07}
